Discrimination Ratios (DR) [3H]DA reuptake/DAT binding overview
# System Tested: human dopamine transporter (hDAT) (Homo sapiens)
# Assay Protocol: cell-based
# Experimental Conditions: Table 6
Readout Label: Discrimination Ratios (DR) [3H]DA reuptake/DAT binding

| Molecule Smiles | Experimental Result |
| --- | --- |
| O=C1CN(CCCCOC(c2ccc(F)cc2)c2ccc(F)cc2)CCN1 | 0.6 |
| CC(=O)c1ccc(N2CCN(CCCCOC(c3ccc(F)cc3)c3ccc(F)cc3)CC2)cc1 | 111.5 |
| Fc1ccc(C(OCCCCN2CCN(c3cccc(Cl)c3)CC2)c2ccc(F)cc2)cc1 | 9.5 |
| Fc1ccc(C(OCCCCN2CCN(c3ccccc3)CC2)c2ccc(F)cc2)cc1 | 23.2 |

====

# System Tested: human serotonin transporter (hSERT) (Homo sapiens, UniProt P31645)
# Sequence (P31645 whole entry): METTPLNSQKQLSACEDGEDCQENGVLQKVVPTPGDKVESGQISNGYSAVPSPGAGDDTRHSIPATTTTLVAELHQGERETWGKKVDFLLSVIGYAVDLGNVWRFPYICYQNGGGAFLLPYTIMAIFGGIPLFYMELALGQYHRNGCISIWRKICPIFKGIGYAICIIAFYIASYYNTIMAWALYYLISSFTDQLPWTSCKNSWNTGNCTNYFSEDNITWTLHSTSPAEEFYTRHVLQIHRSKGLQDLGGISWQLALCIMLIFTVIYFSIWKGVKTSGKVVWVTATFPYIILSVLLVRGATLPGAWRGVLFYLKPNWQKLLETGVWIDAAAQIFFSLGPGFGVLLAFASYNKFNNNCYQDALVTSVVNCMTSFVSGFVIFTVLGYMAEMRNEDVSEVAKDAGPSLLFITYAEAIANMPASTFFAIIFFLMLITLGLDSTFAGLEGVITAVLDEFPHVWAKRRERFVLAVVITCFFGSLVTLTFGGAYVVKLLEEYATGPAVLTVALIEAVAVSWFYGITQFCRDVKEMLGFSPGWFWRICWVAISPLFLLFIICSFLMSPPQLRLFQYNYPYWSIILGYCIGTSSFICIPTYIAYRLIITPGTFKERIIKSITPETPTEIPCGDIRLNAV
# Assay Protocol: cell-based
# Experimental Conditions: Reuptake Inhibition [3H]5-HT IC50, Table 3-1
Readout Label: IC50 (µM)

| Molecule Smiles | System Tested | Experimental Result |
| --- | --- | --- |
| O=C(Nc1ccc(F)cc1)NC1CCN(CCCCOC(c2ccc(F)cc2)c2ccc(F)cc2)CC1 | human serotonin transporter (hSERT) (Homo sapiens, UniProt P31645) | 7.14 |

====

# System Tested: UniProt:P23975
# Assay Protocol: cell-based
# Experimental Conditions: Table 2-1; read-out: Reuptake Inhibition [3H]NE IC50
IC50 overview

| Molecule | System Tested | IC50, nM |
| --- | --- | --- |
| O=C(NCC1CCCN(CCCCOC(c2ccc(F)cc2)c2ccc(F)cc2)C1)c1cccc(C(F)(F)F)c1 (stereo not drawn) | UniProt:P23975 | 53 |
| O=C(NCC1CCCN(CCCCOC(c2ccc(F)cc2)c2ccc(F)cc2)C1)Nc1ccc(F)cc1 (stereo not drawn) | UniProt:P23975 | 20 |
| O=C(NCc1ccc(F)cc1)NCC1CCCN(CCCCOC(c2ccc(F)cc2)c2ccc(F)cc2)C1 (stereo not drawn) | UniProt:P23975 | 136 |

====

# System Tested: D3 receptor (Homo sapiens)
# Sequence (P35462 whole entry): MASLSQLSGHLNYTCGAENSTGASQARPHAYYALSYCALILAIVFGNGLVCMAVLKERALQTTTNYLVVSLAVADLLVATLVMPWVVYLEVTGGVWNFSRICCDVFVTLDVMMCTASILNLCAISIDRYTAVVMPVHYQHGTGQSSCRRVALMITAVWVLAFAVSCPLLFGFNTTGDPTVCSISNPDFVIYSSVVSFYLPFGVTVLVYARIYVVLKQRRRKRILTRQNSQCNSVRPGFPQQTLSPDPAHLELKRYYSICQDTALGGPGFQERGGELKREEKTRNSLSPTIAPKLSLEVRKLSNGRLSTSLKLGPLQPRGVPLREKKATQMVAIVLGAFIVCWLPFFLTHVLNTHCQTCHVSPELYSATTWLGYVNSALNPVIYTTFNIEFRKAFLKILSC
# Assay Protocol: Inhibition of quinpirole-stimulated mitogenesis ([3H]thymidine incorporation), CHOp-D3 cells
pIC50: −log10 of the molar value.
The label depends only on pIC50: TRUE if it is at least 7, FALSE if it is smaller.

| Compound | Group Label |
| --- | --- |
| Fc1ccc(C(OCCCCN2CCN(c3ccccc3)CC2)c2ccc(F)cc2)cc1 | TRUE |
| Fc1ccc(C(OCCCCN2CCNC(c3ccccc3)C2)c2ccc(F)cc2)cc1 (stereo not drawn) | FALSE |
| Fc1ccc(C(OCCCCN2CCN(c3ccc(Cl)cc3)CC2)c2ccc(F)cc2)cc1 | TRUE |
| Fc1ccc(C(OCCCCN2CCN(c3ccccn3)CC2)c2ccc(F)cc2)cc1 | FALSE |
| COc1ccccc1N1CCN(CCCCOC(c2ccc(F)cc2)c2ccc(F)cc2)CC1 | TRUE |
| O=C(c1ccccc1)N1CCN(CCCCOC(c2ccc(F)cc2)c2ccc(F)cc2)CC1 | FALSE |

====

# System Tested: human norepinephrine transporter (hNET) (Homo sapiens, UniProt P23975)
# Sequence (P23975 whole entry): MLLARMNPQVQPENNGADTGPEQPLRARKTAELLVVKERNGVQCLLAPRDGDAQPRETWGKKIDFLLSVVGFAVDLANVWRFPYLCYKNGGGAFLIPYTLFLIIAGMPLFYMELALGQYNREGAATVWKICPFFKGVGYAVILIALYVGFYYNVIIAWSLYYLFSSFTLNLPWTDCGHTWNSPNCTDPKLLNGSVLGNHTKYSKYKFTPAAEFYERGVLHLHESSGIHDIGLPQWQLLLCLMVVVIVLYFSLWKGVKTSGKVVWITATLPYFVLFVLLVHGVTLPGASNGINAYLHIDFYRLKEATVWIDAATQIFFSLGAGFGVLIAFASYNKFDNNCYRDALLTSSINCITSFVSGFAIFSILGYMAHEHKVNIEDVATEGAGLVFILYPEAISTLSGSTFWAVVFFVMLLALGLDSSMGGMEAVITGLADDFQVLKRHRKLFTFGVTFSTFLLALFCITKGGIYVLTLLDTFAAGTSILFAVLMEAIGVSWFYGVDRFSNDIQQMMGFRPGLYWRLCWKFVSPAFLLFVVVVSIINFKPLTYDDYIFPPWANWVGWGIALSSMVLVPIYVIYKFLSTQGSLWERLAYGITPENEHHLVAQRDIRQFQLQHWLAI
# Assay Protocol: biochemical
# Experimental Conditions: Table 1; [125I]RTI-55; read-out: NET binding affinity Ki
pKi: −log10 of the molar value.
The label depends only on pKi: Criterion met if it is at least 6, Criterion not met if it is smaller.

| Compound | Group Label |
| --- | --- |
| O=C(Nc1ccc(-c2ccccc2)cc1)N1CCN(CCCCOC(c2ccc(F)cc2)c2ccc(F)cc2)CC1 [Compound 8] | Criterion not met |
| Fc1ccc(C(OCCCCN2CCN(C(=S)Nc3cccnc3)CC2)c2ccc(F)cc2)cc1 [Compound 6] | Criterion not met |
| O=C(NS(=O)(=O)c1ccc(F)cc1)N1CCN(CCCCOC(c2ccc(F)cc2)c2ccc(F)cc2)CC1 [Compound 7] | Criterion not met |
| O=C(Nc1ccc(F)cc1)N1CCN(CCCCOC(c2ccc(F)cc2)c2ccc(F)cc2)CC1 [Compound 4] | Criterion met |

====

# System Tested: human dopamine transporter (hDAT) (Homo sapiens, UniProt Q01959)
# Sequence (Q01959 whole entry): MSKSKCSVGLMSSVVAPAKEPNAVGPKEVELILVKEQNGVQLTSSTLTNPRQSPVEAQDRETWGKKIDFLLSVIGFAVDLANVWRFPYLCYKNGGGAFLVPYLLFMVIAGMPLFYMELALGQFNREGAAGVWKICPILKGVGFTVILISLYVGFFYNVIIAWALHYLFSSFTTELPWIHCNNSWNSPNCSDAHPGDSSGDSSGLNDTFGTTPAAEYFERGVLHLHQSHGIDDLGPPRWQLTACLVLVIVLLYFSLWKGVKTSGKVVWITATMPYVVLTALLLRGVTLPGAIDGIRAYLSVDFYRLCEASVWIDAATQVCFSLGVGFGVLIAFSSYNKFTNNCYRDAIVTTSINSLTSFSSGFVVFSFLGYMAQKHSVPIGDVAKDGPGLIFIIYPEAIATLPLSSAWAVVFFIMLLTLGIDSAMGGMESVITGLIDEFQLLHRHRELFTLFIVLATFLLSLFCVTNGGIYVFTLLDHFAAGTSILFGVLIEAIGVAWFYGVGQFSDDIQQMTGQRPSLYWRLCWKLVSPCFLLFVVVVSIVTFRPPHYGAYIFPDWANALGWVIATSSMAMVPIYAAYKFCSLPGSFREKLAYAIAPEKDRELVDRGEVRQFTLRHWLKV
# Assay Protocol: biochemical
# Type: binding
# Experimental Conditions: Table 2
Binding Ratios NET/DAT overview

| Molecule | Binding Ratios NET/DAT |
| --- | --- |
| O=C(NCC1CCCN(CCCCOC(c2ccc(F)cc2)c2ccc(F)cc2)C1)c1cccc(C(F)(F)F)c1 (stereo not shown) | 0.1 |
| NCC1CCCN(CCCCOC(c2ccc(F)cc2)c2ccc(F)cc2)C1 (stereo not shown) | 4.8 |
| O=C(NCC1CCCN(CCCCOC(c2ccc(F)cc2)c2ccc(F)cc2)C1)Nc1ccc(F)cc1 (stereo not shown) | 1.1 |
| O=C(NCc1ccc(F)cc1)NCC1CCCN(CCCCOC(c2ccc(F)cc2)c2ccc(F)cc2)C1 (stereo not shown) | 0.3 |

====

# System Tested: human norepinephrine transporter (hNET) (Homo sapiens)
# Assay Protocol: cell-based
# Experimental Conditions: Table 6; read-out: Reuptake Inhibition [3H]NE IC50
IC50 overview
Readout Label: IC50 (nM)

| Molecule | Experimental Result |
| --- | --- |
| Fc1ccc(C(OCCCCN2CCN(c3ccccn3)CC2)c2ccc(F)cc2)cc1 | 2230 |
| Fc1ccc(C(OCCCCN2CCNCC2)c2ccc(F)cc2)cc1 | 850 |
| Fc1ccc(C(OCCCCN2CCN(Cc3ccc4c(c3)OCO4)CC2)c2ccc(F)cc2)cc1 | 43 |
| Fc1ccc(C(OCCCCN2CCNC(c3ccccc3)C2)c2ccc(F)cc2)cc1 (stereo not drawn) | 290 |
| COc1ccccc1N1CCN(CCCCOC(c2ccc(F)cc2)c2ccc(F)cc2)CC1 | 176 |
| O=C(c1ccccc1)N1CCN(CCCCOC(c2ccc(F)cc2)c2ccc(F)cc2)CC1 | 32 |
| Fc1ccc(C(OCCCCN2CCN(c3ccccc3Cl)CC2)c2ccc(F)cc2)cc1 | 290 |
| O=[N+]([O-])c1ccc(N2CCN(CCCCOC(c3ccc(F)cc3)c3ccc(F)cc3)CC2)cc1 | 230 |
| CC(=O)c1ccc(N2CCN(CCCCOC(c3ccc(F)cc3)c3ccc(F)cc3)CC2)cc1 | 33 |

====

IC50 overview
# System Tested: human norepinephrine transporter (hNET) (Homo sapiens)
# Assay Protocol: cell-based
# Experimental Conditions: Table 1-1; read-out: Reuptake Inhibition [3H]NE IC50

| Molecule Smiles | Value Unit | IC50 |
| --- | --- | --- |
| O=C(Nc1ccc(-c2ccccc2)cc1)N1CCN(CCCCOC(c2ccc(F)cc2)c2ccc(F)cc2)CC1 | nM | 56.3 |
| O=C(NCc1ccc(F)cc1)N1CCN(CCCCOC(c2ccc(F)cc2)c2ccc(F)cc2)CC1 | nM | 51 |
| Fc1ccc(C(OCCCCN2CCN(C(=S)Nc3cccnc3)CC2)c2ccc(F)cc2)cc1 | nM | 359 |
| O=C(NS(=O)(=O)c1ccc(F)cc1)N1CCN(CCCCOC(c2ccc(F)cc2)c2ccc(F)cc2)CC1 | nM | 836 |
| O=C(Nc1ccc(F)cc1)N1CCN(CCCCOC(c2ccc(F)cc2)c2ccc(F)cc2)CC1 | nM | 45 |

====

Binding Ratios NET/DAT overview
# System Tested: human dopamine transporter (hDAT) (Homo sapiens)
# Assay Protocol: biochemical
# Type: binding
# Experimental Conditions: Table 5

| Molecule Smiles | Binding Ratios NET/DAT |
| --- | --- |
| Fc1ccc(C(OCCCCN2CCN(c3cccc(Cl)c3)CC2)c2ccc(F)cc2)cc1 | 1.7 |
| Fc1ccc(C(OCCCCN2CCN(c3ccc(Cl)cc3)CC2)c2ccc(F)cc2)cc1 | 7.6 |
| Fc1ccc(C(OCCCCN2CCN(Cc3ccc4c(c3)OCO4)CC2)c2ccc(F)cc2)cc1 | 1.7 |
| Fc1ccc(C(OCCCCN2CCN(c3ccccc3Cl)CC2)c2ccc(F)cc2)cc1 | 8.1 |

====

pIC50 overview
# System Tested: UniProt Q01959
# Assay Protocol: cell-based
# Experimental Conditions: Reuptake Inhibition [3H]DA IC50, Table 2-1
pIC50: −log10 of the molar value.
Readout Label: pIC50

| Compound | System Tested | Readout Label | Experimental Result |
| --- | --- | --- | --- |
| O=C(NCc1ccc(F)cc1)NCC1CCCN(CCCCOC(c2ccc(F)cc2)c2ccc(F)cc2)C1 (stereo not shown) [Compound 13] | UniProt Q01959 | pIC50 | 7.07 |
| O=C(NCC1CCCN(CCCCOC(c2ccc(F)cc2)c2ccc(F)cc2)C1)c1cccc(C(F)(F)F)c1 (stereo not shown) [Compound 11] | UniProt Q01959 | pIC50 | 7.34 |
| O=C(NCC1CCCN(CCCCOC(c2ccc(F)cc2)c2ccc(F)cc2)C1)Nc1ccc(F)cc1 (stereo not shown) [Compound 12] | UniProt Q01959 | pIC50 | 7.04 |
| NCC1CCCN(CCCCOC(c2ccc(F)cc2)c2ccc(F)cc2)C1 (stereo not shown) [Compound 10] | UniProt Q01959 | pIC50 | 7.51 |
